Entry source: patent US10780074B2

- System: behaviors of compound-treated mice
- Test Details: Neuropharmacological Assay (SmartCube)
- Type: in vivo
- Reported Conditions: Mus musculus, ip, 0.25 h, dose having 50% or more total activity in SmartCube, i.p., read-out: MED (minimal effective dose)
Where a name gives a salt, the structure may show the parent alone.
Measurement Type: minimal effective dose

# Compound, Measurement Target, Recorded Value
measured = [
    ("CNC[C@H]1OCCc2c(-c3ccnnc3)cccc21 (single isomer, unassigned) [Compound 77, hydrochloride salt]", "behaviors of compound-treated mice", "≤ 3 mg/kg"),
    ("CNC[C@@H]1OCCCc2c(-c3ccncn3)cccc21 (single isomer, unassigned) [Compound 164, hydrochloride salt]", "behaviors of compound-treated mice", "10 to 30 mg/kg"),
    ("CNCC1OCCc2c(-c3cnoc3)cccc21 (centres unmarked) [Compound 65, hydrochloride salt]", "behaviors of compound-treated mice", "3 to 10 mg/kg"),
    ("Cc1cc(-c2cccc3c2CCO[C@@H]3CN)ccn1 (single isomer, unassigned) [Compound 123, hydrochloride salt]", "behaviors of compound-treated mice", "≤ 3 mg/kg"),
    ("CNC[C@@H]1OCCc2c(-c3ccccn3)cccc21 (single isomer, unassigned) [Compound 43, hydrochloride salt]", "behaviors of compound-treated mice", "10 to 30 mg/kg"),
    ("CNC[C@H]1OCc2c(-c3cccnc3)cccc21 [Compound 34, hydrochloride salt]", "behaviors of compound-treated mice", "≤ 3 mg/kg"),
    ("CNC[C@@H]1OCCc2ccc(-c3cccnc3)cc21 (single isomer, unassigned) [Compound 3, dihydrochloride]", "behaviors of compound-treated mice", "3 to 10 mg/kg"),
    ("CNC[C@H]1OCCc2c(-c3ccnc(C)c3)cccc21 (single isomer, unassigned) [Compound 121, hydrochloride salt]", "behaviors of compound-treated mice", "≤ 3 mg/kg"),
    ("CNC[C@H]1OCCc2c(-c3cccnc3)cccc21 (single isomer, unassigned) [Compound 8, bis-hydrochloride]", "behaviors of compound-treated mice", "≤ 3 mg/kg"),
    ("CNC[C@H]1OCCc2c(-c3ccncn3)cccc21 (single isomer, unassigned) [Compound 73, hydrochloride salt]", "behaviors of compound-treated mice", "3 to 10 mg/kg"),
    ("CNC[C@H]1OCCc2c(-c3ccccc3)cccc21 (single isomer, unassigned) [Compound 129, hydrochloride salt]", "behaviors of compound-treated mice", "3 to 10 mg/kg"),
    ("CNCC1OCCc2c(-c3cnccn3)cccc21 (centres unmarked) [Compound 56, hydrochloride salt]", "behaviors of compound-treated mice", "3 to 10 mg/kg"),
    ("NC[C@H]1OCCc2c(-c3cocn3)cccc21 [Compound 101, HCl salt]", "behaviors of compound-treated mice", "3 to 10 mg/kg"),
    ("CNC[C@@H]1OCCc2ccc(-c3cncnc3)cc21 (single isomer, unassigned) [Compound 26, hydrochloride]", "behaviors of compound-treated mice", "> 30 mg/kg"),
]

----------
- System: behaviors of compound-treated mice
- Test Details: Neuropharmacological Assay (SmartCube)
- Format: in vivo
- Reported Conditions: i.p. 15 min before behavioral test, most efficacious dose(s) of 3 doses
Counter-ions that a name gives are not always drawn.
Measurement Type: DP: anti-depressant (probability that activity matches class)

# Molecule, Recorded Value
rows = [
    ("CNCC1OCCc2c(-c3ccnnc3)cccc21 (stereo not shown) [Compound 54, hydrochloride salt]", "++++ (50% ≤ ++++)"),
    ("CNC[C@@H]1OCCc2c(-c3cncs3)cccc21 (single isomer, unassigned) [Compound 68, hydrochloride salt]", "++++ (50% ≤ ++++)"),
]
